The origin of these recorded values is ChEMBL document CHEMBL1201862.

// values below are reported EC50
- methodDescription: luciferase reporter signal suppression in cells – H4 neuroglioma cells, luminescence, dose response (AID 1990)
- Assay type: functional, cell-based
Active and inactive are the calls of the source. No stated cut-off is given here; in the data, actives have a measured EC50 and inactives only a lower limit.

See these solved cases before continuing.
1. C/C(=N\NC(=O)c1[nH]nc2c1CCC2)c1cccs1 | 4.85 µM (active)
2. Cc1ccccc1OCC(O)CNC1CCC(NCC(O)COc2ccccc2C)CC1 (centres undefined) | > 120 µM (not active)
3. CC1CCN(Cc2c(C(=O)N/N=C/c3ccc(C(C)(C)C)cc3)nnn2-c2nonc2N)CC1 | 9.56 µM (active)

// next entry
(Q) Please report the measured EC50 for COc1ccc(/C=N/NC(=O)C2C3CCCCC32)cc1OC (centres undefined)
(A) > 120 µM (not active)
